src = PubChem BioAssay AID2253

Listed below: EC50 values for each entry.
# System: THP-1 viability, CellTiter-Glo luminescence, 72 h
# Test Description: THP-1 cell cytotoxicity, dose response, cytotoxicity control for Salmonella PhoP regulon inhibitors, S. typhimurium screen hits (AID 2253)

Some solved entries appear below for comparison.
1) COC12C(COC(N)=O)C3=C(C(=O)C(C)=C(N)C3=O)N1CC1C2N1C (stereo not drawn)	9.05 µM
2) COc1ccc(C)cc1NC(=O)C(Sc1nnc(-c2ccncc2)n1-c1ccc(Cl)cc1)c1ccccc1 (stereo not drawn)	22 µM

Consider the additional compound presented here.
Specify reported EC50 for the compound shown: Oc1c(I)cc(Cl)c2cccnc12
14.4 µM

---

# System: THP-1 viability, CellTiter-Glo luminescence, 72 h
# Test Description: THP-1 cell cytotoxicity, dose response, cytotoxicity control for Salmonella PhoP regulon inhibitors, S. typhimurium screen hits (AID 2253)
Measurement Name: pEC50
Field pEC50 (float): negative decimal logarithm of the concentration in molar.

Some solved entries appear below for comparison.
1. CNc1cc(Cl)c2nonc2c1[N+](=O)[O-]	5.44
2. N=c1n(CC(=O)c2ccc(Br)s2)c2ccccc2n1Cc1ccccc1	5.12

Specify reported pEC50 for the compound shown: O=C(N/N=C/c1ccc([N+](=O)[O-])s1)C(O)c1ccccc1 (configuration not stated)
4.92

Specify reported pEC50 for the compound shown: CCOc1cccc(CNc2ccc(O)cc2)c1OCc1ccc(Cl)cc1Cl
4.57

Specify reported pEC50 for the compound shown: CN(c1ccccc1)S(=O)(=O)c1cc(C(=O)Nc2nc3ccccc3[nH]2)ccc1Cl
4.62

---

Listed below: EC50 values for each entry.
# System: THP-1 viability, CellTiter-Glo luminescence, 72 h
# Test Description: THP-1 cell cytotoxicity, dose response, cytotoxicity control for Salmonella PhoP regulon inhibitors, S. typhimurium screen hits (AID 2253)

1) Cc1cccc(Nc2c3c(nc4ccccc24)CCC3)c1	9.08 µM

Check THP-1 viability, CellTiter-Glo luminescence, 72 h data and give EC50 for O=C(/C=C/c1ccco1)NC(=S)Nc1ccc(N2CCCC2)cc1 .
9.59 µM

Check THP-1 viability, CellTiter-Glo luminescence, 72 h data and give EC50 for Cc1ccccc1-n1nnnc1Sc1nnnn1-c1ccccc1 .
12 µM

---

Listed below: EC50 values for each entry.
# System: THP-1 viability, CellTiter-Glo luminescence, 72 h
# Test Description: THP-1 cell cytotoxicity, dose response, cytotoxicity control for Salmonella PhoP regulon inhibitors, S. typhimurium screen hits (AID 2253)

1. CCCCCCCCCCCCCCCC[N+](C)(C)C	0.79 µM

Specify reported EC50 for the molecule shown: N=c1n(CC(=O)c2ccc([N+](=O)[O-])cc2)c2ccccc2n1Cc1ccccc1
14.3 µM

Specify reported EC50 for the molecule shown: O=C(Nc1nnc(-c2cccs2)o1)c1cccc(Oc2ccccc2)c1
19.6 µM

Specify reported EC50 for the molecule shown: NC(=NCCc1c[nH]c2ccccc12)NC(=O)c1ccc(F)cc1
36.4 µM

Specify reported EC50 for the molecule shown: Nc1ccc(Nc2ccccc2)cc1
11.6 µM

Specify reported EC50 for the molecule shown: O=C(NNc1c2ccccc2nc2ccccc12)c1cccc(O)c1
23.2 µM

Specify reported EC50 for the molecule shown: Oc1c(Cl)cc(Cl)c(Cl)c1Cc1c(O)c(Cl)cc(Cl)c1Cl
14.7 µM

Specify reported EC50 for the molecule shown: O=C(NCCNc1ccc([N+](=O)[O-])cc1C(F)(F)F)c1ccc(F)cc1
43.7 µM

Specify reported EC50 for the molecule shown: COc1ccc(O)c(/C=c2/sc3nc4cc(C)c(C)cc4n3c2=O)c1
34.1 µM

Specify reported EC50 for the molecule shown: Cc1cccc(N2CCc3c2nc2ccccc2c3N)c1
47.6 µM

---

# Test system: THP-1 viability, CellTiter-Glo luminescence, 72 h
# Test Description: THP-1 cell cytotoxicity, dose response, cytotoxicity control for Salmonella PhoP regulon inhibitors, S. typhimurium screen hits (AID 2253)
Measurement Name: EC50

Some solved entries appear below for comparison.
1. C[C@H]1c2cccc(O)c2C(O)=C2C(=O)[C@]3(O)C(O)=C(C(N)=O)C(=O)[C@@H](N(C)C)[C@@H]3[C@@H](O)[C@@H]21	27.5 µM
2. Cc1ccc(C(=O)O)cc1N=Cc1cc(Br)cc(Br)c1O	37.2 µM
3. Cc1cc(C2=NNC(=NC3CC3)SC2)c(C)n1Cc1ccco1	5.69 µM
4. CN1CCN(CCCN2c3ccccc3Sc3ccc(Cl)cc32)CC1	14.1 µM
5. CCCOc1ccc(Br)cc1CSC(=N)N	5.31 µM
6. CCOc1ccc(CSC(=N)N)cc1[N+](=O)[O-]	20.4 µM

Check THP-1 viability, CellTiter-Glo luminescence, 72 h data and give EC50 for CCCCCCNC(=O)c1cn(CC)c2cc(N3CCN(C)CC3)c(F)cc2c1=O .
16.1 µM

Check THP-1 viability, CellTiter-Glo luminescence, 72 h data and give EC50 for CC(=O)NC(c1ccc(C)cc1)c1cc([N+](=O)[O-])c2cccnc2c1O (configuration not stated) .
6.41 µM

Check THP-1 viability, CellTiter-Glo luminescence, 72 h data and give EC50 for CCc1ccc(-c2nn(-c3ccccc3)cc2CSC(=N)N)cc1 .
6.52 µM

Check THP-1 viability, CellTiter-Glo luminescence, 72 h data and give EC50 for Cc1ccc(C[n+]2cc(-c3ccc(Cl)cc3)n3c2CCC3)cc1 .
12 µM

Check THP-1 viability, CellTiter-Glo luminescence, 72 h data and give EC50 for CC1CCC(C(C)C)C(OC(=O)Cn2c(-c3ccc(Cl)cc3)[n+](C)c3ccccc32)C1 (configuration not stated) .
2.13 µM

Check THP-1 viability, CellTiter-Glo luminescence, 72 h data and give EC50 for CCOc1ccc(Nc2c3ccccc3nc3ccccc23)cc1 .
1.24 µM
